Target Or System: CDK1/Cyclin B1 (Homo sapiens, UniProt P06493)
Sequence (P06493 whole entry): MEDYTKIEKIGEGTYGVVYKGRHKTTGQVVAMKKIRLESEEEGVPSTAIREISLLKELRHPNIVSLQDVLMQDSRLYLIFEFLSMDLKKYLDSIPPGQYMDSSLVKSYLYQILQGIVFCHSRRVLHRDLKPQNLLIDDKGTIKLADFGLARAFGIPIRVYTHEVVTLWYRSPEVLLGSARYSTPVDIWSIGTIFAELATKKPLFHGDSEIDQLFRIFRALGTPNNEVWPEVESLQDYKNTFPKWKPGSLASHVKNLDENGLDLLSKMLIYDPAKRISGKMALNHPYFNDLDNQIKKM
Sequence (P14635 whole entry partner): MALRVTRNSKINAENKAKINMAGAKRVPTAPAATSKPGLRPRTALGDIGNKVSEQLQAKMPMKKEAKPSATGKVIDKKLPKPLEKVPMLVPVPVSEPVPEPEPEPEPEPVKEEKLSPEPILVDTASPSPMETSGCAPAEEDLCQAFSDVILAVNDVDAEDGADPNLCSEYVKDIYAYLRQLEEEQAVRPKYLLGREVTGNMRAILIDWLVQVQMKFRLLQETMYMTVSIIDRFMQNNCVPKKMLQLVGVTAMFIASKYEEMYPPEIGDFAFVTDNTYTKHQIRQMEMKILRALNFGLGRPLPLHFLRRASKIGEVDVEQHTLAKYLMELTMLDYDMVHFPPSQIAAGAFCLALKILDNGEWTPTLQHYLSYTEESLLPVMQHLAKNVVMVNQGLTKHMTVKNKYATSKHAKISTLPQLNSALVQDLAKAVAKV
Procedure Details: CDK1/Cyclin B1 TR-FRET biochemical assay, 0.015 mM ATP
Assay Context: 0.15 μM Rb (Ser780)-biotin substrate, 120 min reaction, Table 1
pIC50: −log10 of the molar value.
Quantity Measured: pIC50

| Compound | Target Or System | pIC50 |
| --- | --- | --- |
| CC(C)c1cn[nH]c1O[C@@H]1CC[C@H](c2cc(Nc3ccc4c(c3F)CNS4(=O)=O)n[nH]2)C1 (relative stereo) | CDK1/Cyclin B1 (Homo sapiens, UniProt P06493) | 6.14 |
| CC(C)c1ccnn([C@H]2CC[C@@H](c3cc(Nc4ccc5c(c4F)CNS5(=O)=O)n[nH]3)C2)c1=O (relative stereo) | CDK1/Cyclin B1 (Homo sapiens, UniProt P06493) | 5.77 |

A: O=S1(=O)NCc2c1ccc(Nc1cc([C@H]3CC[C@@H](Oc4ccn[nH]4)C3)[nH]n1)c2F (relative stereo)
B: CC1(C)NC(=O)N(C2CCC(c3cc(Nc4ccc5c(c4F)CNS5(=O)=O)n[nH]3)C2)C1=O (single isomer, unassigned) [Example 84b]
C: CC(C)(C)c1cnc([C@@H]2CC[C@H](c3cc(Nc4ccc5c(c4)CS(=O)(=O)N5)n[nH]3)C2)o1 (relative stereo)
D: O=S1(=O)Cc2cc(Nc3cc(C4CCC(c5ncc(CO)o5)C4)[nH]n3)ccc2N1 (stereo not shown)
E: O=S1(=O)NCc2c1ccc(Nc1cc(C3CCC(c4ncc(CO)o4)C3)[nH]n1)c2F (stereo not shown)
Q. Please list the entries, largest pIC50 first. Form entry: labels listed in requested order.
A. C, B, A, D, E

----------
Target Or System: CDK2/Cyclin E1 (Homo sapiens, UniProt P24941)
Procedure Details: CDK2/Cyclin E1 TR-FRET biochemical assay, 1 mM ATP
Assay Context: 0.15 μM Rb (Ser780)-biotin substrate, 90 min reaction, Table 2
Quantity Measured: IC50 (nM)

| Compound | Units Symbol | IC50 |
| --- | --- | --- |
| CC(C)c1cnc(C2CCC(c3cc(Nc4ccc5c(c4F)CS(=O)(=O)N5)n[nH]3)C2)o1 (single isomer, unassigned) [Example 152b] | nM | 19 |

I: CC1(c2cnc(C3CCC(c4cc(Nc5ccc6c(c5F)CNS6(=O)=O)n[nH]4)C3)o2)CC1 (stereo not drawn) [Example 112]
II: CC(C)(C)c1cccc(C2CCC(c3cc(Nc4ccc5c(c4F)CNS5(=O)=O)[nH]n3)C2)n1 (stereo not drawn) [Example 118]
Q. // compare measured IC50 between I and II ; output the lower one Kindly give the label for the entry you pick.
A. I
(I: 16 nM, II: 725 nM)

P: CC(C)c1cnc(C2CCC(c3cc(Nc4ccc5c(c4F)CNS5(=O)=O)n[nH]3)C2)o1 (single isomer, unassigned) [Example 109c]
Q: CC(C)(C)c1cnc(C2CCC(c3cc(Nc4ccc5c(c4)CN=S5(C)=O)n[nH]3)C2)o1 (single isomer, unassigned) [Example 169a]
R: CC(C)(C)c1cnnc(C2CCC(c3cc(Nc4ccc(S(N)(=O)=O)cc4F)n[nH]3)C2)c1 (stereo not drawn) [Example 3]
S: CC(C)(C)c1cnn([C@@H]2CC[C@H](c3cc(Nc4ccc5c(c4F)CNS5(=O)=O)n[nH]3)C2)c1 (relative stereo) [Example 89]
T: CC(C)(C)c1ccnc(C2CCC(c3cc(Nc4ccc5c(c4F)CNS5(=O)=O)[nH]n3)C2)c1 (stereo not drawn) [Example 117]
Q. Order the records, beginning with the lowest IC50 and ending with the highest. Form entry: labels listed in requested order.
A. Q, T, R, S, P

I: CC(C)(C)c1ccnc(C2CCC(c3cc(Nc4ccc(S(N)(=O)=O)cc4F)n[nH]3)C2)n1 (stereo not drawn) [Example 4]
II: CC(C)(C)c1cc(O[C@@H]2CC[C@H](c3cc(Nc4ccc5c(c4F)CNS5(=O)=O)n[nH]3)C2)ncn1 (relative stereo) [Example 38]
III: Cc1cc(C(C)(C)C)cc(C2CCC(c3cc(Nc4ccc5c(c4F)CS(=O)(=O)C5)n[nH]3)C2)n1 (stereo not drawn) [Example 175]
Q. Order the records, beginning with the lowest IC50 and ending with the highest. Form entry: labels listed in requested order.
A. I, III, II

A: Cc1nc(C2CCC(c3cc(Nc4ccc5c(c4F)CNS5(=O)=O)n[nH]3)C2)oc1C(C)(C)C (stereo not drawn) [Example 111]
B: CC(C)c1cnc(C2CCC(c3cc(Nc4ccc5c(c4)CS(=O)(=O)N5)n[nH]3)C2)o1 (single isomer, unassigned) [Example 138a]
C: CC(C)(C)c1cnc(C2CCC(c3cc(Nc4ccc(S(N)(=O)=O)cc4F)n[nH]3)C2)o1 (single isomer, unassigned) [Example 6b]
Q. Order the records, beginning with the lowest IC50 and ending with the highest. Form entry: labels listed in requested order.
A. B, A, C

A: CC(C)(C)c1csnc1O[C@@H]1CC[C@H](c2cc(Nc3ccc4c(c3F)CNS4(=O)=O)n[nH]2)C1 (relative stereo) [Example 56]
B: CC(C)c1ncc(C2CCC(c3cc(Nc4ccc5c(c4F)CNS5(=O)=O)n[nH]3)C2)o1 (stereo not drawn) [Example 105]
C: CC(C)(C)c1nnc([C@H]2CC[C@H](c3cc(Nc4ccc5c(c4F)CNS5(=O)=O)n[nH]3)C2)o1 (relative stereo) [Example 97]
D: CC(C)(C)c1ncccc1O[C@@H]1CC[C@H](c2cc(Nc3ccc4c(c3)CS(=O)(=O)N4)n[nH]2)C1 (relative stereo) [Example 139]
Q. Please list the entries, largest IC50 first. Form entry: labels listed in requested order.
A. C, B, D, A

I: CC(C)(C)c1ccc(C2CCC(c3cc(Nc4ccc5c(c4F)CS(=O)(=O)C5)n[nH]3)C2)o1 (stereo not drawn) [Example 176]
II: CC(C)(C)n1cc(C2CCC(c3cc(Nc4ccc5c(c4F)CNS5(=O)=O)n[nH]3)C2)cn1 (stereo not drawn) [Example 99]
III: Cc1nc(C2CCC(c3cc(Nc4cc5c(cc4F)S(=O)(=O)NC5)n[nH]3)C2)oc1C(C)(C)C (stereo not drawn) [Example 19]
IV: Cn1ncc(C(C)(C)C)c1O[C@@H]1CC[C@H](c2cc(Nc3ccc4c(c3F)CNS4(=O)=O)n[nH]2)C1 (relative stereo) [Example 72]
Q. Order the records, beginning with the lowest IC50 and ending with the highest. Form entry: labels listed in requested order.
A. III, I, II, IV

1: CC(C)(C)c1coc(C2CCC(c3cc(Nc4ccc5c(c4)CS(=O)(=O)N5)n[nH]3)C2)n1 (stereo not drawn) [Example 136]
2: CCOC(=O)c1nc(C2CCC(c3cc(Nc4ccc5c(c4F)CNS5(=O)=O)n[nH]3)C2)oc1C(C)(C)C (stereo not drawn) [Example 114]
Q. // compare measured IC50 between 1 and 2 ; output the lower one Kindly give the label for the entry you pick.
A. 1
(1: 60 nM, 2: 429 nM)

1: CC(C)(O)c1cc(C2CCC(c3cc(Nc4ccc5c(c4F)CNS5(=O)=O)n[nH]3)C2)n[nH]1 (stereo not drawn) [Example 101]
2: CC(C)(C)c1cn([C@@H]2CC[C@H](c3cc(Nc4ccc5c(c4F)CNS5(=O)=O)n[nH]3)C2)nn1 (relative stereo) [Example 90]
Q. // compare measured IC50 between 1 and 2 ; output the lower one Kindly give the label for the entry you pick.
A. 1
(1: 564 nM, 2: 3310 nM)

Every entry's value here was drawn from patent US20260200897A1.
